- System: MS2 coat protein
- test_protocol: apparent KD of MS2 coat protein; designed switch direction (-1 OFF switch, 1 ON switch): -1; higher = weaker reporter binding
- test_parameters: input ligand: none
quantity_kind: apparent KD of MS2 coat protein

sequence_input="ACAUGAGGAUCACCCAUGUGAAAACAAUGGCUGACUUUGAGACAGGAUAUUCGUGCAUAUCAAACGAAGAAGGGUCAUUACUGG [Deportation 94 - Jieux - Exclusion NG 3] (Eterna round: R96, puzzle: Exclusion NG 3)" result="37.7 nM"
sequence_input="GUCUAGAGAGGAUAUAUUUACAGUGUACGUCGGAUGAUUGCACUUGAGGAUCACCCAAGUAGAAGGCUCGAGGG [EX2 #32] (Eterna round: R97, puzzle: Exclusion 2)" result="303 nM"
sequence_input="GGUAGAGUGGUAGGAUAUCCGUCUGUUUCAGUCGGAGAAGGACCACAGUCACUGGGUCCUAAUAUCAUGGAGACCUGAUCUACC [pwkr exNG1 F6.12] (Eterna round: R96, puzzle: Exclusion NG 1)" result="284 nM"

====

- Test system: MS2 coat protein
- test_protocol: apparent KD of MS2 coat protein; higher = weaker reporter binding
- test_parameters: Eterna round: R107; input ligand: none
Parameter: apparent KD of MS2 coat protein. Scope: all listed entries.
quantity_kind: apparent KD of MS2 coat protein (nM)

sequence_input="UGUAUGUGAUUUGAUACCAGACCAGCUGGUGUUAGAUGAGGAUCACCCAUCUAGGUUUGGGUCCCUUGGCAGCAAAUCGCAUACU [SS Theo B #24 Ms13]" measurement_target="MS2 coat protein" result_number=18
sequence_input="GACAUGAGGAUCACCCAUGUUUGCUAUGAAGGAGCGUCGGAAAUGACAGGUAGGUCGCAUAGUAGGCCUUGUAUUUUGUGUGUUU [EAA #8]" measurement_target="MS2 coat protein" result_number=10.1
sequence_input="AGCCCGGGAGCGGCCGCCACUGGAGGCUUUGCGCGACAUGAGGAUCACCCAUGUGUGCCCGGCGUUAGGACCGGGCUCGCGUGGU [#1 Same State - Tryptophan B Attempt #21 (HarryS)]" measurement_target="MS2 coat protein" result_number=33.4

====

Recorded apparent KD of MS2 coat protein values for a group of sequences are listed next.
- Test system: MS2 coat protein
- test_protocol: apparent KD of MS2 coat protein; designed switch direction (-1 OFF switch, 1 ON switch): 1; higher = weaker reporter binding
- test_parameters: input ligand: microRNA oligo, concentration not stated
quantity_kind: apparent KD of MS2 coat protein (nM)

sequence_input="GUGGUGGGUUGAGGAUAUUGGUUGUUGUUGUCCCACAUGAGGAUCACCCAUGUGGGUUGUGGUUUUGAGAAGGUUGGUUGCCGG [salish99_SSNG2_r04_053] (Eterna round: R96, puzzle: Same State NG 2)" result_number=15
sequence_input="GUUACAUGAGGAUCACCCAUGUAUGUGUGGGAGUAAGUGUCUUAGGAUAUCUAUUAUUUAAAUUAAGAGAAGGAAGAUUGUUGU [JMF's solution 7] (Eterna round: R96, puzzle: Same State NG 3)" result_number=93
sequence_input="GAGAGAUGGCGAGGAUAUUCGGUGAUAAUGAUAGAAGAAGGCGCUGACAUGAGGAUCACCCAUGUGGGAAUAAUCCAGAGAGAG [Parity 18 - Jieux - Same State NG 1] (Eterna round: R96, puzzle: Same State NG 1)" result_number=73.8
sequence_input="UUAUCCUUUUUUUACAUGAGGAUCACCCAUGUUUUUCUUACGUAGGAUAUCGUUGUUUUUUUUUACGAGAAGGACGUAGUAAGA [JR_SSND3_Sub061] (Eterna round: R96, puzzle: Same State NG 3)" result_number=31.9

====

- Test system: MS2 coat protein
- test_protocol: apparent KD of MS2 coat protein; designed switch direction (-1 OFF switch, 1 ON switch): -1; higher = weaker reporter binding
- test_parameters: input ligand: none
Tag: yes (1) if measured apparent KD of MS2 coat protein is not below 40 nM, no (0) if it is.

sequence_input="GUUUCGUGAGGAUAUGUGGCUUCGAUCGUGCGAAGAAGGCUACAGAAGGCACAUGAGGAUCACCCAUGUUCGUC [salish99_ex4_r4_227] (Eterna round: R97, puzzle: Exclusion 4)" qualitative_label="yes (1)"
sequence_input="ACAUGAGGAUCACCCAUGUACACGUAAUGGCUCAUGUAGAGUCAGGAUAUGCGUGGCGAACUCGCGCAGAAGGGACAAGACUGG [Deportation 21 - Jieux - Exclusion NG 3] (Eterna round: R96, puzzle: Exclusion NG 3)" qualitative_label="no (0)"
sequence_input="GGUAGAGUGGUAGGAUAUCCGACUGAAACAGACGGAGAAGGACCACAGUCACUGGGUCCACUUAUAAUUAACAAUAAAUCUACC [pwkr exNG1 F6.2] (Eterna round: R96, puzzle: Exclusion NG 1)" qualitative_label="yes (1)"
sequence_input="UUGUACCGGUGAGGAUAUUUUUAAUAGAGCUUUAUGAUAUACAUGAGGAUCACCCAUGUUACGUUGAAGAAGGCAUCGGAUUAU [JL JR Sub091 mod 5] (Eterna round: R96, puzzle: Exclusion NG 2)" qualitative_label="no (0)"
sequence_input="AUUAGAUGAGGAUAUACAUGGUUGCGGGUGCGGCAGGAUCUACAUGAGGAUCACCCAUGUAGAAGGCAUGUAUC [EX2 C.22] (Eterna round: R97, puzzle: Exclusion 2)" qualitative_label="no (0)"

====

- System: MS2 coat protein
- test_protocol: apparent KD of MS2 coat protein; designed switch direction (-1 OFF switch, 1 ON switch): -1; higher = weaker reporter binding
- test_parameters: input ligand: microRNA oligo, concentration not stated
Measured apparent KD of MS2 coat protein, listed per entry.
quantity_kind: apparent KD of MS2 coat protein

sequence_input="ACAUGAGGAUCACCCAUGUUAACGAAAAGGCUCAUGUAGAGUGAGGAUAUGUGAGACGAACGAGAACAGAAGGCACAAGACAGG [Deportation 2 - Jieux - Exclusion NG 3] (Eterna round: R96, puzzle: Exclusion NG 3)" measurement_target="MS2 coat protein" result="0.0152 µM"
sequence_input="CUGAGCAGACGGAGAUCCCACAUGAGGAUCACCCAUGUCUCAAAAGCUUUUUGCUUGUCUUAUUCUCCUCUGUUCUC [Arorza] (Eterna round: R96, puzzle: Sensor v3, turn-off variant 1)" measurement_target="MS2 coat protein" result="0.0722 µM"
sequence_input="AUUUUAUAACAAGGAUAUACUAAACAUGAGGAUCACCCAUGUAAUAUUAUGAGUGAGAGAGAGAAGUAGAAGGUGUAUUAUUUU [JMF solution 1] (Eterna round: R96, puzzle: Exclusion NG 2)" measurement_target="MS2 coat protein" result="0.0974 µM"
sequence_input="UUUUUACAUGAGGAUCACCCAUGUCAGGAUAUCCUUAUAUUUUAUUAUUUUAUUUUUUGGAGAAGGGACUAUUA [My solution] (Eterna round: R96, puzzle: Exclusion 1)" measurement_target="MS2 coat protein" result="0.282 µM"
sequence_input="ACGAUGACCGAAAAGUGUCAACUGACAUGAGGAUCACCCAUGUAGGAUAUGGCUACGAAAAGUAGUCAGAAGGACAUGUCAUCA [Omei Exc(NG) 3 Av6] (Eterna round: R96, puzzle: Exclusion NG 3)" measurement_target="MS2 coat protein" result="0.0105 µM"
sequence_input="AUUGAUAGCACAGGAUAUUGAGAUUUGAAUUGACAAGAAGGGUGUACAUGAGGAUCACCCAUGUAAUGGGAGAAUGAUUGAUUA [JR_ExcNG1_Sub001] (Eterna round: R96, puzzle: Exclusion NG 1)" measurement_target="MS2 coat protein" result="1.04 µM"
sequence_input="ACAUGAGGAUCACCCAUGUCCGGCUGGUCUGGUCCGGCUGUCGAGGAUAUAGUCCGGUGUUCGCGCUAGAAGGCGGGAGCUGGA [Aenatbe mod 50] (Eterna round: R96, puzzle: Exclusion NG 3)" measurement_target="MS2 coat protein" result="0.0622 µM"
sequence_input="AAAAACAAGCCCAUGCUCGUCUUAAGAUCGAAAGAUCAAACAUGAGGAUCACCCAUGUGCGAGCAUGGGUGAUCCUC [Sensor v2, turn off variant 2 (JL Turnoff v2 4 - MOD3)] (Eterna round: R96, puzzle: Sensor v2, turn-off variant 2)" measurement_target="MS2 coat protein" result="0.0102 µM"
sequence_input="UACAUGAGGAUCACCCAUGUUUUGUCGUGUAUGGUAUUUAUCUAGGAUAUCAAUCUAUUUAGUUAUGAGAAGGAGAAUAUUAAU [JMF's solution 54] (Eterna round: R96, puzzle: Exclusion NG 3)" measurement_target="MS2 coat protein" result="0.0299 µM"
sequence_input="UCUAGUUGGCAAGGAUAUCCUACAUUGUUCUGGCCCGGGCAUGCUACAUGAGGAUCACCCAUGUGGGAGAAGGUGCGUCAUUGC [Design 22] (Eterna round: R96, puzzle: Exclusion NG 2)" measurement_target="MS2 coat protein" result="0.0505 µM"
sequence_input="AAAAAAAGACAAGAGGAGAUUCGUCUUAAAAAUCCUCAAACAUGAGGAUCACCCAUGUAAAAUGAUCGAAAGAUCAA [Mat - Sensor v2 - ver2 - JL mod - D39] (Eterna round: R96, puzzle: Sensor v2, turn-off variant 2)" measurement_target="MS2 coat protein" result="0.024 µM"
sequence_input="GCCGUUAAGGUAGGAUAUGCUCGGUCUGUUCGUGCAGAAGGGCUGGUCGGCGACUUGAGGAUCACCCAAGUGGUCUUAUAGAAA [Mutated MS2 EX1.19] (Eterna round: R96, puzzle: Exclusion NG 1)" measurement_target="MS2 coat protein" result="0.0523 µM"
sequence_input="UUUUUAUAUGAAGGAUAUACUUAACAUGAGGAUCACCCAUGUGGUGUUGUGAGUGAGUGAGUUUAGUAGAAGGUCAAUAAUUUU [JMF's solution 9] (Eterna round: R96, puzzle: Exclusion NG 2)" measurement_target="MS2 coat protein" result="0.18 µM"
sequence_input="AGUCCUAGUCAAGGAUAUACACCGAAGAAAUACGUAGAAGGUGACAUGAGGAUCACCCAUGUAGGGCCUCUGGAAACAGAGGAA [Indiinbi] (Eterna round: R96, puzzle: Exclusion NG 1)" measurement_target="MS2 coat protein" result="0.107 µM"
sequence_input="ACAUGAGGAUCACCCAUGUGACAAUAAUGGCUGAUACAGAGACAGGAUAUAGGUGCAUAUCUAACCUAGAAGGGUCAUGACUGG [Deportation 72 - Jieux - Exclusion NG 3] (Eterna round: R96, puzzle: Exclusion NG 3)" measurement_target="MS2 coat protein" result="0.0306 µM"
sequence_input="CCCACCUCAUGAACAACAUGAGGAUCACCCAUGUUGAAGACUAAGGAUAUCGUACUCGAUGAAUGCGAGAAGGUGGCACUUCGA [Eternabot solution 36] (Eterna round: R96, puzzle: Exclusion NG 3)" measurement_target="MS2 coat protein" result="0.0207 µM"
sequence_input="ACAUGAGGAUCACCCAUGUCCGGCUGGUCUGUUCCGGCUGUCGAGGAUAUAGUCCGGUGUUCGCGCUAGAAGGCGGGAGCUGGA [Aenatbe mod 51] (Eterna round: R96, puzzle: Exclusion NG 3)" measurement_target="MS2 coat protein" result="0.0345 µM"
